Listing of recorded koff by entry.
system-under-test: T1, Recombinant human OX40-His protein (human, UniProt P43489 29-214, limits assumed)
T1 construct: Recombinant antigen protein; also called recombinant human OX-40 protein; human OX-40 protein; not shown: His tag
T1 sequence (looked up): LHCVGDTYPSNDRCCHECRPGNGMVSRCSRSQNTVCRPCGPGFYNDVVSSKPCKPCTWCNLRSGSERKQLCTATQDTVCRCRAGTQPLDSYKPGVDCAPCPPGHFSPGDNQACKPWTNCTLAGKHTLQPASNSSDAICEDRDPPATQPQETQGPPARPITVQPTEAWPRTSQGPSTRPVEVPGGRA
test-method-notes: kinetic ranking (RU, 1:1 binding model), prokaryotically expressed antibody product as ligand, OX40-His as analyte
Report the value in s⁻¹ with no unit label.

binder	measurement-kind	numeric-result
AH02906, prokaryotically expressed antibody product (back-mutation screening) (Fab, V domains shown) VH: QVQLVQSGAEVKKPGASVKVSCKASGYTFTDYSMHWVKQAPGQGLEWMGWISTETGEPTYADDFKGRFTITLDTSASTAYMELSSLRSEDTAVYYCARVRPWYLAVWGQGTLVTVSS VL: DIQMTQSPSSLSASVGDRVTITCRASQDISNYLNWYQQKPGKAPKLLIYYTSRLYSGVPSRFSGSGSGTDYTLTISSLQPEDIATYFCQQANTLPLTFGGGTKLEIK	koff	0.00511
AH02915, prokaryotically expressed antibody product (back-mutation screening) (Fab, V domains shown) VH: QVQLVQSGAEVKKPGASVKVSCKASGYTFTDYSMHWVKQAPGQGLEWMGWISTETGEPTYADDFKGRVTITLDTSASTAYLEISSLRSEDTAVYYCARVRPWYLAVWGQGTLVTVSS VL: DIQMTQSPSSLSASVGDRVTITCRASQDISNYLNWYQQKPGKAPKLLIYYTSRLYSGVPSRFSGSGSGTDFTLTISSLQPEDIATYFCQQANTLPLTFGGGTKLEIK	koff	0.00307
AH02925, prokaryotically expressed antibody product (back-mutation screening) (Fab, V domains shown) VH: QVQLVQSGAEVKKPGASVKVSCKASGYTFTDYSMHWVKQAPGQGLEWMGWISTETGEPTYADDFKGRVTITRDTSASTAYLEISSLRSEDTAVYFCARVRPWYLAVWGQGTLVTVSS VL: DIQMTQSPSSLSASVGDRVTITCRASQDISNYLNWYQQKPGKAVKLLIYYTSRLYSGVPSRFSGSGSGTDFTLTISSLQPEDIATYYCQQANTLPLTFGGGTKLEIK	koff	0.00439

Here is the next item to consider.
Req: Tell me its koff given AH02921, prokaryotically expressed antibody product (back-mutation screening) (Fab, V domains shown) VH: QVQLVQSGPEVKKPGASVKVSCKASGYTFTDYSMHWVRQAPGQGLEWMGWISTETGEPTYADDFKGRFTITLDTSASTAYLEISSLRSEDTAVYFCARVRPWYLTVWGQGTLVTVSS VL: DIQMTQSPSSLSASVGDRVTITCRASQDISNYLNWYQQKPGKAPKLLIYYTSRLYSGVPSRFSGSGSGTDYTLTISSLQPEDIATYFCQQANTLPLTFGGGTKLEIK as the entry.
Resp: 0.0013
